The reported numbers originate from patent US7691890B2.

# Test system: Parainfluenza Type 3 Virus
# Experiment Description: organism not typed
# Type: cell-based, parainfluenza type 3 virus (14702)
# Condition Details: MA104, MA-104 cells, read-out: CPE Inhibition test EC50
pEC50: −log10 of the molar value.
Measurement Label: pEC50

> print(dat)
                                   compound  experimental.value
1  NC(=O)c1ncn([C@@H]2O[C@H](CO)[C@@H](O)[C@H]2O)n1 [ribavirin, reference compound]                3.64

###

# EC50 values compiled below
# System: Influenza A (H1N1)
# Experiment Description: CPE inhibition test
# Type: cell-based
# Condition Details: Influenza A virus, H1N1, MDCK, read-out: CPE Inhibition test EC50
Measurement Label: EC50

> print(dat)
                                   molecule  target.or.test.system  experimental.value
1  Cc1nocc1C(=O)Nc1ccc(C(F)(F)F)cc1 [Compound 99-126]     Influenza A (H1N1)             > 20 µM
2  Cc1oncc1C(=O)Nc1cccc(C(F)(F)F)c1 [Compound 99-127]     Influenza A (H1N1)            > 200 µM

###

# CC50 values compiled below
# Experiment Description: Toxicity to 2.2.15 cells by neutral red dye uptake
# Assay type: cell-based
# Condition Details: human, 2.2.15 human liver cells
Measurement Label: CC50

> print(dat)
                        structure.as.smiles  experimental.value
1  O=c1ccn([C@@H]2O[C@H](CO)[C@@H](O)[C@H]2O)c(=O)[nH]1            > 100 µM
2          Cc1oncc1C(=O)Nc1cccc(C(F)(F)F)c1               67 µM
3          Cc1nocc1C(=O)Nc1ccc(C(F)(F)F)cc1              110 µM

###

# System: hepatitis B virus (HBV)
# Experiment Description: microbe, parasite or virus in culture
# Type: cell-based
# Condition Details: Hepatitis B virus, 216 h
Measurement Label: EC50

> print(dat)
                        structure.as.smiles  experimental.value
1  O=c1ccn([C@@H]2O[C@H](CO)[C@@H](O)[C@H]2O)c(=O)[nH]1            > 100 µM
2          Cc1oncc1C(=O)Nc1cccc(C(F)(F)F)c1               11 µM
3          Cc1nocc1C(=O)Nc1ccc(C(F)(F)F)cc1            > 100 µM

###

# Tested on: Influenza B
# Experiment Description: CPE inhibition test
# Type: cell-based
# Condition Details: Influenza B virus, MDCK, read-out: CPE Inhibition test EC50
pEC50: −log10 of the molar value.
Measurement Label: pEC50

> print(dat)
                                   molecule  value.prefix  experimental.value
1  Cc1nocc1C(=O)Nc1ccc(C(F)(F)F)cc1 [Compound 99-126]             =                4.22
2  Cc1oncc1C(=O)Nc1cccc(C(F)(F)F)c1 [Compound 99-127]             <                3.70

###

# Test system: Respiratory Syncytial Virus A
# Experiment Description: microbe, parasite or virus in culture
# Assay type: cell-based, Respiratory syncytial virus (RSV) (A2)
# Condition Details: human respiratory syncytial virus, MA104, MA-104 cells, read-out: Neutral Red Uptake test EC50
pEC50: −log10 of the molar value.
Measurement Label: pEC50

> print(dat)
                                   compound          target.or.test.system  experimental.value
1  NC(=O)c1ncn([C@@H]2O[C@H](CO)[C@@H](O)[C@H]2O)n1 [ribavirin, reference compound]  Respiratory Syncytial Virus A                4.09
